B1: 2M8U (parent)
chain: TKAQVIEAFKVFDRDGNGYVTVDYLRKVLNELGDMMPADEIEEMIYEADPQNSGYVQYETFVGMLFL

Variants of: B1
protocolSummary: folding stability dG (cDNA display proteolysis); higher = more stable
statedConditions: PBS, room temperature
metric: folding stability dG (kcal/mol)

>>> print(df.to_string())
    variantannotation  value
 0                E7H   2.93
 1               V62T      3
 2               M44E   2.18
 3               D34V    4.2
 4               D15L   3.17
 5               L32S   2.56
 6               T60H   3.66
 7               P50D    2.9
 8               D13Q   1.87
 9                V5Q   2.09
10               M36I   3.75
11               I41Y   3.35
12                V5E   1.95
13               E59V   3.68
14               K27Q   3.53
15               V20R   2.18
16                Q4S   3.47
